Task for the reader: assign each of the following compounds its reported combination cScore with sotorasib.
Test system: NCI-H2122
Assay: combination cScore with sotorasib (Bliss gap around IC50) (%PoC); higher = stronger additive effect
Response field accepts a number only; no unit should be typed.

In: Give reported combination cScore with sotorasib value for C[C@@H]1C[C@H]2[C@@H]3CCC4=CC(=O)C=C[C@]4(C)[C@@]3(F)[C@@H](O)C[C@]2(C)[C@@]1(O)C(=O)CO [Dexamethasone] + C=CC(=O)N1CCN(c2nc(=O)n(-c3c(C)ccnc3C(C)C)c3nc(-c4c(O)cccc4F)c(F)cc23)[C@@H](C)C1
Out: -0.78

In: For the compound CC[C@]1(O)C[C@@H]2CN(CCc3c([nH]c4ccccc34)[C@@](C(=O)OC)(c3cc4c(cc3OC)N(C)[C@H]3[C@@](O)(C(=O)OC)[C@H](OC(C)=O)[C@]5(CC)C=CCN6CC[C@]43[C@@H]65)C2)C1 [Vinblastine] + C=CC(=O)N1CCN(c2nc(=O)n(-c3c(C)ccnc3C(C)C)c3nc(-c4c(O)cccc4F)c(F)cc23)[C@@H](C)C1 , give its reported combination cScore with sotorasib.
Out: 6.11

In: Report measured combination cScore with sotorasib; entry is CC(=O)Nc1cccc(-n2c(=O)n(C3CC3)c(=O)c3c(Nc4ccc(I)cc4F)n(C)c(=O)c(C)c32)c1 [Trametinib] + C=CC(=O)N1CCN(c2nc(=O)n(-c3c(C)ccnc3C(C)C)c3nc(-c4c(O)cccc4F)c(F)cc23)[C@@H](C)C1
Out: 14.2

Source listed as the supplement of paper PMC11424490.
